Provenance of the data: patent US20100280061A1

target: UniProt P21333; experiment: FITC-NLX-based FLNA screening assay (FLNA peptide binding assay); details: 0.1 μM compound, 10 nM FITC-NLX
I'd be grateful if you could share measured Percent inhibition of FITC-NLX binding, 0.1 μM for these entries.
Answers are plain numbers, in %.

Give measured Percent inhibition of FITC-NLX binding, 0.1 μM for every item shown.
1. COCOc1ccc(C(=O)CC2c3c(cc4c(c3OC)OCO4)CC[N+]2(C)C)cc1C.[I-] (centres unmarked)
2. COc1c2c(cc3c1C(CC(=O)CCc1ccc(Cl)cc1)[N+](C)(C)CC3)OCO2 (centres unmarked)
3. COc1ccccc1CCC(=O)CC1c2c(cc3c(c2OC)OCO3)CC[N+]1(C)C (centres unmarked)
4. COc1ccccc1C(=O)CC1c2c(cc3c(c2OC)OCO3)CC[N+]1(C)C (centres unmarked)
5. COc1cccc(OC)c1CC(=O)CC1c2c(cc3c(c2OC)OCO3)CC[N+]1(C)C.[I-] (centres unmarked)

Result:
[46.8, 36.6, 68.2, 49.4, 52.8]

---

target: mu opiate receptor (MOR) (Rattus norvegicus, UniProt P33535); construct: from tissue; host or cells: striatal tissue (membrane preparation); assay: [35S]GTPγS binding assay using striatal membranes (MOR agonist activity); assay type: biochemical; design: reference not given here; conditions: 1 μM compound, striatal membranes
Sequence (P33535 whole entry): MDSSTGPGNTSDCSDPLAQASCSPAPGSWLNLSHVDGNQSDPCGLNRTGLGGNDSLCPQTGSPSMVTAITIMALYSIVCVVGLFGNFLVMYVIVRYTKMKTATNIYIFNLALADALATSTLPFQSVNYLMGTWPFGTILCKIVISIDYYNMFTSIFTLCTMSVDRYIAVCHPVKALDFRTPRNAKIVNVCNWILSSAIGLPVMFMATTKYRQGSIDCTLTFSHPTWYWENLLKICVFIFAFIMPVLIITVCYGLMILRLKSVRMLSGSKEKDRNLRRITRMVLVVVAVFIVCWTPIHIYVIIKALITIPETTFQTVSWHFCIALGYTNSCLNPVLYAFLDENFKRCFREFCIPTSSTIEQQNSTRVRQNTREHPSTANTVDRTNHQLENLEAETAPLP
Label label 1 when MOR agonist activity, [35S]GTPγS binding to Gαo, 1 μM is at or above 200%; otherwise label label 0.

// below: answered compounds
>>> group("COCOc1ccc(C(=O)CC2c3c(cc4c(c3OC)OCO4)CC[N+]2(C)C)cc1C.[I-] (centres unmarked)")
"label 0"
>>> group("COc1c2c(cc3c1C(CC(=O)CCc1ccc(F)cc1)[N+](C)(C)CC3)OCO2 (centres unmarked)")
"label 0"
>>> group("CCOc1ccc(C(=O)CC2c3c(cc4c(c3OC)OCO4)CC[N+]2(C)C)cc1F (centres unmarked)")
"label 0"
>>> group("COc1c2c(cc3c1C(CC(=O)c1ccc(O)c(C)c1)[N+](C)(C)CC3)OCO2 (centres unmarked)")
"label 1"
>>> group("COc1c2c(cc3c1C(CC(O)CCc1ccccc1)N(C)CC3)OCO2 (centres unmarked)")
"label 0"
>>> group("COc1c2c(cc3c1C(CC(=O)CCc1ccc(O)cc1)[N+](C)(C)CC3)OCO2.[I-] (centres unmarked)")
"label 1"
>>> group("COc1c2c(cc3c1C(CC(=O)CCc1ccc(Cl)cc1)[N+](C)(C)CC3)OCO2 (centres unmarked)")
"label 0"
>>> group("COc1ccc(CCC(O)CC2c3c(cc4c(c3OC)OCO4)CC[N+]2(C)C)cc1 (centres unmarked)")
"label 1"

Request: Item COCOc1ccc(CCC(=O)CC2c3c(cc4c(c3OC)OCO4)CC[N+]2(C)C)cc1.[I-] (centres unmarked) with MOR agonist activity, [35S]GTPγS binding to Gαo, 1 μM of 200% or above?
Result: label 1

Request: Could you tell me if the measured MOR agonist activity, [35S]GTPγS binding to Gαo, 1 μM of COc1ccc(CC(=O)CC2c3c(cc4c(c3OC)OCO4)CC[N+]2(C)C)c(OC)c1 (centres unmarked) reaches 200% or more?
Result: label 1

Request: Quick check, MOR agonist activity, [35S]GTPγS binding to Gαo, 1 μM >= 200%? COc1ccc(C(=O)CC2c3c(cc4c(c3OC)OCO4)CC[N+]2(C)C)cc1C.[I-] (centres unmarked)
Result: label 1

Request: State whether the measured MOR agonist activity, [35S]GTPγS binding to Gαo, 1 μM reaches 200%, counting equality as reaching it, for COc1c2c(cc3c1C(CC(=O)Cc1ccccc1Cl)[N+](C)(C)CC3)OCO2.[I-] (centres unmarked)
Result: label 1

Request: Is reported MOR agonist activity, [35S]GTPγS binding to Gαo, 1 μM greater than or equal to 200% here: COc1ccccc1CC(O)CC1c2c(cc3c(c2OC)OCO3)CCN1C (centres unmarked)
Result: label 1

Request: Reported MOR agonist activity, [35S]GTPγS binding to Gαo, 1 μM reaches at least 200% for COc1c2c(cc3c1C(CC(=O)Cc1ccccc1F)[N+](C)(C)CC3)OCO2.[I-] (centres unmarked) ?
Result: label 1

Request: Can COc1ccc(CCCCC2c3c(cc4c(c3OC)OCO4)CC[N+]2(C)C)cc1 (centres unmarked) be said to have MOR agonist activity, [35S]GTPγS binding to Gαo, 1 μM at or above 200%?
Result: label 1

Request: Is it the case that COc1cc(CC(=O)CC2c3c(cc4c(c3OC)OCO4)CC[N+]2(C)C)cc(OC)c1OC (centres unmarked) has MOR agonist activity, [35S]GTPγS binding to Gαo, 1 μM reaching or exceeding 200%?
Result: label 1

Request: Check the entry COc1c2c(cc3c1C(CC(=O)c1ccc(F)c(F)c1)[N+](C)(C)CC3)OCO2 (centres unmarked) : does MOR agonist activity, [35S]GTPγS binding to Gαo, 1 μM equal or exceed 200%?
Result: label 0

Request: Hi, just wondering whether COc1c2c(cc3c1C(CC(=O)c1ccc(N4CCOCC4)cc1)[N+](C)(C)CC3)OCO2 (centres unmarked) shows MOR agonist activity, [35S]GTPγS binding to Gαo, 1 μM of 200% or higher.
Result: label 1

Request: Item COc1ccc(C(=O)CC2c3c(cc4c(c3OC)OCO4)CC[N+]2(C)C)cc1OC.[I-] (centres unmarked) with MOR agonist activity, [35S]GTPγS binding to Gαo, 1 μM of 200% or above?
Result: label 1
